Molecular target: MATE1 (Homo sapiens, UniProt Q96FL8)
Sequence (Q96FL8 1-570): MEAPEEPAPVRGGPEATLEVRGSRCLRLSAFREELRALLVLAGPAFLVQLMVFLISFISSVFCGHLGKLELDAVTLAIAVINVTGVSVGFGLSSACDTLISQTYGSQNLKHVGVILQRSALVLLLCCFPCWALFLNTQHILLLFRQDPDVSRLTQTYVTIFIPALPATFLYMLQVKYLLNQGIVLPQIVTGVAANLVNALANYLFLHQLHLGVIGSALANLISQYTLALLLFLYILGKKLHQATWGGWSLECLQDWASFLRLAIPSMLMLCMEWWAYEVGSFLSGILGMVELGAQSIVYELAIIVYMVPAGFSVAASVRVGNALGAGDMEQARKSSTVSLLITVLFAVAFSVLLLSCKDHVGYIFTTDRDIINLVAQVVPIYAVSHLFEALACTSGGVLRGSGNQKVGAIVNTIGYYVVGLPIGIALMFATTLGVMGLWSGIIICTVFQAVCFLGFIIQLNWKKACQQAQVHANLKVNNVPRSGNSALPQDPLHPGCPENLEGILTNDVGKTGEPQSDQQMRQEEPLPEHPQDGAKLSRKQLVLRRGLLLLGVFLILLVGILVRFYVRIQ
Assay: Uptake ratio in MATE1-overexpressing HEK293 cells vs empty vector (2.5 μM, 1 min, HPLC-MS/MS)
Type: cell-based
Set-up: key: 1 = substrate; 0 = no substrate
Conditions: Table S4
Measured MATE1 substrate* of individual entries
The response must contain the number and no unit.

Sample records with MATE1 substrate*:
- Compound: "O=c1ncccn1[C@@H]1O[C@H](CO)[C@@H](O)[C@H]1O [Zebularine]"
  Observed measurement: 0
- Compound: "CN(C)CCOC1=Cc2ccccc2Sc2ccc(Cl)cc21 [Zotepin]"
  Observed measurement: 0
- Compound: "CN(C)CCc1c[nH]c2ccc(C[C@H]3COC(=O)N3)cc12 [Zolmitriptan (R), Zolmitriptan]"
  Observed measurement: 1

Ask: Answer with the recorded MATE1 substrate* for the compound listed here: CN(C)CCc1c[nH]c2ccc(C[C@H]3COC(=O)N3)cc12 [Zolmitriptan]
Result: 1

Ask: Answer with the recorded MATE1 substrate* for the compound listed here: CN(C)CCc1c[nH]c2ccc(C[C@H]3COC(=O)N3)cc12 [Zolmitriptan (S), Zolmitriptan]
Result: 1

Ask: Answer with the recorded MATE1 substrate* for the compound listed here: O=C1Cc2cc(CCN3CCN(c4nsc5ccccc45)CC3)c(Cl)cc2N1 [Ziprasidone]
Result: 0
